Attribution: PubChem BioAssay AID1963833

Test system: 883617-216-R-J1-PDC complex spheroid viability;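 also: spheroids exposed to compounds for seven days before readout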
Assay remarks: Anticancer human tumor 883617-216-R-J1-PDC patient-derived bladder carcinoma cell line growth inhibition [POLQ]
Condition: second compound 1 µM; first compound 1 µM; stronger effect = lower value
true if viability, T/C is below 70%. false if not; exact matches included in false.

Molecule	System	Group label
C=CC(=O)N1CCN(c2nc(=O)n(-c3c(C)ccnc3C(C)C)c3nc(-c4c(O)cccc4F)c(F)cc23)C(C)C1 (centres undefined) + COC1C(OC(N)=O)C(O)C(Oc2ccc3c(O)c(NC(=O)c4ccc(O)c(CC=C(C)C)c4)c(=O)oc3c2C)OC1(C)C	883617-216-R-J1-PDC complex spheroid viability	false
COc1cc(C2c3cc4c(cc3C(OC3OC5COC(C)OC5C(O)C3O)C3COC(=O)C23)OCO4)cc(OC)c1O (centres undefined) + COC1C(OC(N)=O)C(O)C(Oc2ccc3c(O)c(NC(=O)c4ccc(O)c(CC=C(C)C)c4)c(=O)oc3c2C)OC1(C)C	883617-216-R-J1-PDC complex spheroid viability	true
CNCc1ccc(-c2[nH]c3cc(F)cc4c3c2CCNC4=O)cc1 + Nc1ccc(C#CCN(C(=O)Cc2ncc(C(F)(F)F)cc2C(F)(F)F)c2ccc(F)cc2)nn1	883617-216-R-J1-PDC complex spheroid viability	false
O=C(c1cc(Cc2n[nH]c(=O)c3ccccc23)ccc1F)N1CCN(C(=O)C2CC2)CC1 + Nc1ccc(C#CCN(C(=O)Cc2ncc(C(F)(F)F)cc2C(F)(F)F)c2ccc(F)cc2)nn1	883617-216-R-J1-PDC complex spheroid viability	false
CCc1cc2c(N3CCc4c(cc(Cn5ccnc5)cc4-c4cn(C)nc4C(F)(F)F)C3=O)cc(C)nc2c(OC)n1 + Cc1cccc(N(C)C(=O)C2C(O)CCN2c2nc(C)cc(C(F)(F)F)c2C#N)c1	883617-216-R-J1-PDC complex spheroid viability	false
CCCS(=O)(=O)Nc1ccc(F)c(C(=O)c2c[nH]c3ncc(-c4ccc(Cl)cc4)cc23)c1F + Nc1ccc(C#CCN(C(=O)Cc2ncc(C(F)(F)F)cc2C(F)(F)F)c2ccc(F)cc2)nn1	883617-216-R-J1-PDC complex spheroid viability	false
COc1cccc(OCCCN)c1-c1cc(Nc2cnc(C#N)cn2)n[nH]1 + COC1C(OC(N)=O)C(O)C(Oc2ccc3c(O)c(NC(=O)c4ccc(O)c(CC=C(C)C)c4)c(=O)oc3c2C)OC1(C)C	883617-216-R-J1-PDC complex spheroid viability	true
